Notes on pIC50 obtained with DGKα (Homo sapiens (Human), UniProt P23743).
Sequence (P23743 whole entry): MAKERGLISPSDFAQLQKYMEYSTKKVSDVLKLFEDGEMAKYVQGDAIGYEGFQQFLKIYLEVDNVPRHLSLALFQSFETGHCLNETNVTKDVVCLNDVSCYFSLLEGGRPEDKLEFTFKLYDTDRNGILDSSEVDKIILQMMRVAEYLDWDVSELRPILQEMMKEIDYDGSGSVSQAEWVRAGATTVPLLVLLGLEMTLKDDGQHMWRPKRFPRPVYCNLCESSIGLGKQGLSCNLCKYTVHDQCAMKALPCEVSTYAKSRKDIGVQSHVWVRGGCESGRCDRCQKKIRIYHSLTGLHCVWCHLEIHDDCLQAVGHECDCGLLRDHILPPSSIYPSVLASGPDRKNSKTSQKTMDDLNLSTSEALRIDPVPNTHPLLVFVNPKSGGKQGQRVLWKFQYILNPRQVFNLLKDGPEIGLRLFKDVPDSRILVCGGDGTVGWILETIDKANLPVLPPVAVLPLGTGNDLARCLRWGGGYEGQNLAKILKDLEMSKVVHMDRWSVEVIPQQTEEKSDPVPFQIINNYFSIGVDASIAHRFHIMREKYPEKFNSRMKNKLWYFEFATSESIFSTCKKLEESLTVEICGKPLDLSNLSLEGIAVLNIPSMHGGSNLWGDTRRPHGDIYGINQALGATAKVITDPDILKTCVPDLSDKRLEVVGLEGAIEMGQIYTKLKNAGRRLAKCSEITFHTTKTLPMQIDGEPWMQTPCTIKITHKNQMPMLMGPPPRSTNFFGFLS
Reminder that pIC50 means the negative base-10 logarithm of the concentration expressed in mol/L.

Previously resolved entries follow.
CC#CCn1cc2c(n1)c(N1C[C@@H](CC)N(C(C)c3ccc4ncsc4c3)C[C@@H]1C)cc(=O)n2C (single isomer, unassigned) [Compound A112a]: 7.19
CC[C@H]1CN(C(C)c2ccn3nc(C)c(F)c3n2)[C@H](CC)CN1c1cc(=O)n(C)c2cn(CC#N)nc12 (single isomer, unassigned) [Compound A160a]: 5.22
CC[C@H]1CN(C(C)c2ccc3c(c2)CCC3(C)C)[C@H](CC)CN1c1cc(=O)n(C)c2cn(CC#N)nc12 (stereo partly drawn) [Compound A66]: 5.65
CC[C@H]1CN(C(C)c2cn3ncccc3n2)[C@H](CC)CN1c1cc(=O)n(C)c2cn(CC#N)nc12 (stereo partly drawn) [Compound A180]: 5.61
CC[C@H]1CN(C(C)c2cc(F)c(C(=O)N(C)C)c(F)c2)[C@H](CC)CN1c1cc(=O)n(C)c2cn(CC#N)nc12 (single isomer, unassigned) [Compound A3b]: 5.23

As a next step, examine the compound that follows.
input: What reported pIC50 corresponds to CC[C@H]1CN(C(C)c2ccc(CN3CCS(=O)(=O)CC3)cc2)[C@H](CC)CN1c1cc(=O)n(C)c2cn(CC#N)nc12 (stereo partly drawn) [Compound A192] on DGKα (Homo sapiens (Human), UniProt P23743)?
output: 6.14

----------
The following compounds are listed with their measured pIC50 values.
# MEASUREMENT TARGET: DGKζ (Homo sapiens (Human), UniProt Q13574)
# Sequence (Q13574 other isoform, or with tags, fused parts or gaps): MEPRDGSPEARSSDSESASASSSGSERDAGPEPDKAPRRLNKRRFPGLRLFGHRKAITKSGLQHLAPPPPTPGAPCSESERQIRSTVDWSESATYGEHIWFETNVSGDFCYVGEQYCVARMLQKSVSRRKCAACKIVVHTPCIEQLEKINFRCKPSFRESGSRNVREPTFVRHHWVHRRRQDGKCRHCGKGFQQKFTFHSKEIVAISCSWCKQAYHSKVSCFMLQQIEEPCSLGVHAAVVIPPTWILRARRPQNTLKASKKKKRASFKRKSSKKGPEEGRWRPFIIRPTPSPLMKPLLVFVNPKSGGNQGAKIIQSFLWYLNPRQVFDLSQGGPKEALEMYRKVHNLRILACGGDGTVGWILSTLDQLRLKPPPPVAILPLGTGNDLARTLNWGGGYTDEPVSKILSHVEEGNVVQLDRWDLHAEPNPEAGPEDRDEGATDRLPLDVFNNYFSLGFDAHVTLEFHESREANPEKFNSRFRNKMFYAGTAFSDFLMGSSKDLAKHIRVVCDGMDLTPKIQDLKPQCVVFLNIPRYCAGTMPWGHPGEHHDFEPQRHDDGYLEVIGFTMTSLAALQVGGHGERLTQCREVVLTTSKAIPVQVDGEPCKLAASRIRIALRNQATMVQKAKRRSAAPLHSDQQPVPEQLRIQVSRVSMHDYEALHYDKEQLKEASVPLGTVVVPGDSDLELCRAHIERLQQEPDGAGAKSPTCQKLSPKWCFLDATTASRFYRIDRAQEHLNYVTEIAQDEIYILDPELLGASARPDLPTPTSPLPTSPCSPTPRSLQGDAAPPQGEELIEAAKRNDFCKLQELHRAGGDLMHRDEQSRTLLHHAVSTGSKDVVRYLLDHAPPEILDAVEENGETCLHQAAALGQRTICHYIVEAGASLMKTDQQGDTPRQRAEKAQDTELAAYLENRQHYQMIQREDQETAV
Reminder that pIC50 means the negative base-10 logarithm of the concentration expressed in mol/L.

Previously resolved entries follow.
CC[C@H]1CN(C(C)c2ccc(CS(C)(=O)=O)cc2)[C@H](CC)CN1c1cc(=O)n(C)c2cn(CC#N)nc12 (stereo partly shown) [Compound A198]: 5.25
CC[C@H]1CN(C(C)c2ccc3ncc(F)n3n2)[C@H](CC)CN1c1cc(=O)n(C)c2cn(CC#N)nc12 (single isomer, unassigned) [Compound A168b]: 7.16
CC[C@H]1CN(C(C)c2ccc3nc(C)sc3n2)[C@H](CC)CN1c1c(C#N)c(=O)n(C)c2cn(CC#N)nc12 (single isomer, unassigned) [Compound A140b]: 7.35
CC[C@@H]1CN(c2cc(=O)n(C)c3cn(CC#N)nc23)[C@@H](C)CN1C(C)c1ccc2ncsc2c1 (single isomer, unassigned) [Compound A92b]: 6.58

input: What reported pIC50 corresponds to CCc1cn2nc(C(C)N3C[C@H](CC)N(c4cc(=O)n(C)c5cn(CC#N)nc45)C[C@H]3CC)ccc2n1 (single isomer, unassigned) [Compound A153b] on DGKζ (Homo sapiens (Human), UniProt Q13574)?
output: 6.71

input: What reported pIC50 corresponds to CC[C@H]1CN(C(C)c2ccc3nc(COC)sc3n2)[C@H](CC)CN1c1cc(=O)n(C)c2cn(CC#N)nc12 (single isomer, unassigned) [Compound A143b] on DGKζ (Homo sapiens (Human), UniProt Q13574)?
output: 7.41

input: What reported pIC50 corresponds to CC[C@H]1CN(C(C)c2ccc3c(n2)CCO3)[C@H](CC)CN1c1cc(=O)n(C)c2cn(CC#N)nc12 (stereo partly shown) [Compound A73] on DGKζ (Homo sapiens (Human), UniProt Q13574)?
output: 6.90

input: What reported pIC50 corresponds to CC[C@H]1CN(C(C)c2ccn3ncc(C)c3n2)[C@H](CC)CN1c1cc(=O)n(C)c2cn(CC#N)nc12 (single isomer, unassigned) [Compound A151b] on DGKζ (Homo sapiens (Human), UniProt Q13574)?
output: 8.12

input: What reported pIC50 corresponds to CC#CCn1cc2c(n1)c(N1C[C@@H](CC)N(C(C)c3ccc4nc(C)sc4c3)C[C@@H]1CC)cc(=O)n2C (single isomer, unassigned) [Compound A114b] on DGKζ (Homo sapiens (Human), UniProt Q13574)?
output: 5.49

input: What reported pIC50 corresponds to CC[C@@H]1CN(c2cc(=O)n(C)c3cn(CC#N)nc23)[C@@H](C)CN1[C@H](C)c1ccc2ncoc2c1 (single isomer, unassigned) [Compound A85b] on DGKζ (Homo sapiens (Human), UniProt Q13574)?
output: 5.46

input: What reported pIC50 corresponds to CC[C@H]1CN(C(C)c2ccc3nc(C)sc3n2)[C@H](CC)CN1c1cc(=O)n(C)c2cn(CC#N)nc12 (single isomer, unassigned) [Compound A133b] on DGKζ (Homo sapiens (Human), UniProt Q13574)?
output: 7.62

input: What reported pIC50 corresponds to CC[C@H]1CN(C(C)c2ccc(C(=O)N(C)C)c(F)c2)[C@H](CC)CN1c1cc(=O)n(C)c2cn(CC#N)nc12 (single isomer, unassigned) [Compound A4a] on DGKζ (Homo sapiens (Human), UniProt Q13574)?
output: 6.24

input: What reported pIC50 corresponds to CC[C@H]1CN(C(C)c2ccc(CN3CC(F)(F)C3)cc2)[C@H](CC)CN1c1cc(=O)n(C)c2cn(CC#N)nc12 (stereo partly shown) [Compound A27] on DGKζ (Homo sapiens (Human), UniProt Q13574)?
output: 6.69

This collection of values is drawn from patent US20250346597A1.
